# TARGET: gpH2R (atrium) (Cavia porcellus)
# ASSAY_PROTOCOL: Organ bath study on isolated guinea pig right atrium
OBSERVED_PROPERTY: EC50 (nM)

Past entries and their recorded results:
INSERT INTO measurements (molecular_string, unit_descriptor, assay_value) VALUES
  ('N=C(NCCCNC(N)=O)NCCCc1c[nH]cn1', 'nM', 2450),
  ('N=C(NCCCCCCCCCCCCN)NCCCc1cnc(N)s1', 'nM', 234),
  ('N=C(NCCCCCCCCN)NCCCc1c[nH]cn1', 'nM', 309),
  ('N=C(NCCCCCCN)NCCCc1c[nH]cn1', 'nM', 380);

1. N=C(N)NCCCCCCCCNC(=N)NCCCc1cnc(N)s1
2. N=C(NCCCCCCNC(N)=O)NCCCc1c[nH]cn1
q: Of 1 and 2 , which carries the smaller reported EC50 figure? Please identify the chosen entry by its label.
a: 1
(1: 38.9 nM, 2: 676 nM)

* * *

# TARGET: UniProt:P47747
# ASSAY_PROTOCOL: Organ bath study on isolated guinea pig right atrium
# CONDITION_PARAMETERS: maximal response relative to maximal increase in heart rate induced by histamine (Emax=1.00)
OBSERVED_PROPERTY: Emax gpH2R
When you answer, write just the number.

Worked cases, Emax gpH2R given:
INSERT INTO results (compound, observed_property, assay_value) VALUES
  ('N=C(NCCCN)NCCCc1c[nH]cn1 [compound 115]', 'Emax gpH2R', 0.88),
  ('N=C(NCCCNC(N)=O)NCCCc1c[nH]cn1 [compound 132]', 'Emax gpH2R', 0.89);

q: Return Emax gpH2R measured with UniProt:P47747 given this compound: N=C(NCCCCCCCCCCCCN)NCCCc1cnc(N)s1 [compound 122]
a: 0.90

* * *

# TARGET: gpH2R (atrium) (Cavia porcellus, UniProt P47747)
# Sequence (P47747 whole entry): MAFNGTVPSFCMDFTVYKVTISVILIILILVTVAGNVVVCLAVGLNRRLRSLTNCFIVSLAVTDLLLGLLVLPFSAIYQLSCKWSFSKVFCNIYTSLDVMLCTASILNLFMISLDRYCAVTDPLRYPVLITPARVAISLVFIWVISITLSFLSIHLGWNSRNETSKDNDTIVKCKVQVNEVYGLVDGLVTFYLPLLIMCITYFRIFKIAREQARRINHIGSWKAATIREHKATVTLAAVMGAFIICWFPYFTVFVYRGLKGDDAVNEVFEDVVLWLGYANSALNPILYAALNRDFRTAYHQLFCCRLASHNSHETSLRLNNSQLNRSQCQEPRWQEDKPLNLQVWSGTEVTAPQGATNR
# ASSAY_PROTOCOL: Organ bath study on isolated guinea pig right atrium
pEC50: −log10 of the molar value.
OBSERVED_PROPERTY: pEC50

INSERT INTO measurements (compound, observed_property, assay_value) VALUES
  ('N=C(NCCCCN)NCCCc1c[nH]cn1', 'pEC50', 5.13);

a. N=C(N)NCCCCCCCCCCCCNC(=N)NCCCc1cnc(N)s1
b. NC(=O)NCCCc1c[nH]cn1 [compound 145, 1‐[3‐(1H‐Imidazol‐4‐yl)propyl]urea]
c. CSC(=N)NCCCc1c[nH]cn1
q: Kindly order the items shown according to pEC50, from the highest value down. Reply: labels, ordered per the request.
a: a, c, b

* * *

# TARGET: gpH2R (atrium) (Cavia porcellus, UniProt P47747)
# ASSAY_PROTOCOL: Organ bath study on isolated guinea pig right atrium
# CONDITION_PARAMETERS: maximal response relative to maximal increase in heart rate induced by histamine (Emax=1.00)
Readings of Emax gpH2R for the listed molecules
Field format: numeric only.

INSERT INTO assay_data (molecule, observed_property, assay_value) VALUES
  ('Cc1nc(N)sc1CCCNC(=N)NCCCCCCCCCCCCN', 'Emax gpH2R', 0.71),
  ('N=C(NCCCCCCNC(N)=O)NCCCc1c[nH]cn1', 'Emax gpH2R', 0.96),
  ('NC(=O)NCCCc1c[nH]cn1 [compound 145, 1‐[3‐(1H‐Imidazol‐4‐yl)propyl]urea]', 'Emax gpH2R', 0.58),
  ('N=C(N)NCCCCCCCCNC(=N)NCCCc1cnc(N)s1', 'Emax gpH2R', 1.00);

Kindly review the next molecule as well.
q: Give Emax gpH2R (gpH2R (atrium) (Cavia porcellus, UniProt P47747)) of the following molecule: Cc1nc(N)sc1CCCNC(=N)NCCCCCCCCCCCCNC(=N)N
a: 0.90
